FYI, the data here is from ChEMBL document CHEMBL1125345.

- STUDY SYSTEM: Adenosine A2 receptor (Rattus norvegicus, UniProt P29276+P30543)
- EXPERIMENTAL DETAILS: Affinity for adenosine A2 receptor at rat striatal membrane using 5 nM [3H]CGS-21680
- Parameters: species or system Striatum
Assignment: determine reported Ki for the given compounds.
The reply should contain only the number, in µM.

Query: Endpoint output: Ki of `OC[C@H]1O[C@@H](n2cnc3c(NCCCc4ccccc4)ncnc32)[C@H](O)[C@@H]1O` . Value?
Reply: 0.455

Query: Endpoint output: Ki of `O=S(=O)([O-])CCCCCCCCCCNc1ncnc2c1ncn2[C@@H]1O[C@H](CO)[C@@H](O)[C@H]1O.[Na+]` . Value?
Reply: 8.78

Query: Endpoint output: Ki of `N.O=S(=O)(O)c1ccc(CCCCNc2ncnc3c2ncn3[C@@H]2O[C@H](CO)[C@@H](O)[C@H]2O)cc1` . Value?
Reply: 11.3

Query: Endpoint output: Ki of `CCCCCCCCCCNc1ncnc2c1ncn2[C@@H]1O[C@H](CO)[C@@H](O)[C@H]1O` . Value?
Reply: 60

Query: Endpoint output: Ki of CCNc1ncnc2c1ncn2C1O[C@H](CO)[C@@H](O)[C@H]1O (stereo partly specified) . Value?
Reply: 8.9

Query: Endpoint output: Ki of `OC[C@H]1O[C@@H](n2cnc3c(NCCCCc4ccccc4)ncnc32)[C@H](O)[C@@H]1O` . Value?
Reply: 4.75
